TGI values, listed per item
# System: OVCAR-8 ovarian
# Measurement Description: NCI tumour cell line growth inhibition, 48 h

# return recorded TGI for entry O=C1CCc2cc3c(cc21)CC1(Cc2cc4c(cc2C1)CCCC4)C3
> 100 µM

# return recorded TGI for entry CC1=C(C(=O)Nc2ccc(F)c(Cl)c2)C(c2cccc(Oc3ccccc3)c2)NC(=O)N1 (stereo unspecified)
43.7 µM

# return recorded TGI for entry CC(=O)N1C2=CCCC2(C)c2ccccc21 (stereo unspecified)
> 100 µM

# return recorded TGI for entry COc1cc(/C=C/C(=O)c2c(C)n([O-])c3ccc(Cl)cc3[n+]2=O)cc(OC)c1OC
33.4 µM

# return recorded TGI for entry CN(C)CCNC(=O)c1cc(-c2nccn2C)nc2ccccc12
> 100 µM
